- testTarget: T1, rhesus monkey ERBB3 His tag, monomeric (rhesus monkey (Macaca mulatta), UniProt P21860 20-643 (human entry), limits assumed)
- T1 chain: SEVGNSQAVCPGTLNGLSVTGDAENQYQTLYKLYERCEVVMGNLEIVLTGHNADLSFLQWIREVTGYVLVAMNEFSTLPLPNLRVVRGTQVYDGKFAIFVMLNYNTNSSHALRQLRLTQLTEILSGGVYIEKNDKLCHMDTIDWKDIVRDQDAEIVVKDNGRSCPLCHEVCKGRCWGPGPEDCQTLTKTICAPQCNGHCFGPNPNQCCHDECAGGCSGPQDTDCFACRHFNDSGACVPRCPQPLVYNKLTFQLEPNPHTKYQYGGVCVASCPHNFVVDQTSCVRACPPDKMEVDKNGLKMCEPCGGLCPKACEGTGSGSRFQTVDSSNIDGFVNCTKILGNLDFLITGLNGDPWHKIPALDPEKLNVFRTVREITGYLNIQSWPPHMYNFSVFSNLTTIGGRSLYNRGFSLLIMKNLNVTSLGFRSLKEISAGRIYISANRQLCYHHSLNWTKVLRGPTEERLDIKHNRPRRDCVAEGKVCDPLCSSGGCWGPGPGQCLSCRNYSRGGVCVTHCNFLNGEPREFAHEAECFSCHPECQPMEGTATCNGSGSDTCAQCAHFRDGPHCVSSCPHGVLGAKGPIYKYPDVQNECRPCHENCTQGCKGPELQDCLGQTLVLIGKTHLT
- assaySummary: SPR (Biacore), captured IgG, monomeric ERBB3-His analyte
Assignment: determine reported kon for the given binders.
Field format: number, assumed M⁻¹ s⁻¹, no unit text.

INPUT: Which kon value is on record for 15G11 IgG1null (antibody, V domains shown, Human IgG1null (L234A, L235A, G237A) and human Ckappa) VH: QVQLVESGGGLVKPGGSLRLSCAASGFTFSDYGMSWIRQAPGKGLEWVSTISDSGSYTYYPDSVKGRFTISRDNAKNSLYLQMNSLRAEDTAVYYCARELGDYDGFDYWGQGTLVTVSS VL: DIQMTQSPSSLSASVGDRVTITCRASQEISSYLSWYQQKPGKAPKLLIYAASSLDSGVPSRFSGSGSGTDFTLTISSLQPEDFATYYCLQYDSTPYTFGGGTKVEIK ?
OUTPUT: 3.3e+06

INPUT: Input 17H10 IgG1null (antibody, V domains shown, Human IgG1null and human Ckappa) VH: QVQLVESGGGLVKPGGSLRLSCAASGFTFSDYGMSWIRQAPGKGLEWVSTISDGGSYTYYADSVKGRFTISRDNAKNSLYLQMNSLRAEDTAVYYCAREWGDYDGFDEWGQGTLVTVSS VL: DIQMTQSPSSLSASVGDRVTITCRASQSISGYLSWYQQKPGKAPKLLIYAASTLQSGVPSRFSGSGSGTDFTLTISSLQPEDFATYYCLQYDSTPYTFGGGTKVEIK
OUTPUT: 2.7e+06

INPUT: Input h24C05 IgG1null (antibody, V domains shown, Human IgG1null (L234A, L235A, G237A) and human Ckappa; also called humanized 24C05) VH: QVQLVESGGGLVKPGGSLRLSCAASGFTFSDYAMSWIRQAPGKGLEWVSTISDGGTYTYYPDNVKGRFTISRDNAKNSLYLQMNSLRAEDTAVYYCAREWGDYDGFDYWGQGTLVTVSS VL: DIQMTQSPSSLSASVGDRVTITCRASQEISGYLSWFQQKPGKAPKSLIYAASTLDSGVPSRFSGSGSGTDFTLTISSLQPEDFATYYCLQYDSYPYTFGGGTKVEIK
OUTPUT: 4.1e+06

INPUT: Input 09H02 IgG1null (antibody, V domains shown, Human IgG1null and human Ckappa; also called 09HO2) VH: QVQLVESGGGLVKPGGSLRLSCAASGFTFSDYSMSWIRQAPGKGLEWVSTISDGGSYTYYPDSVKGRFTISRDNAKNSLYLQMNSLRAEDTAVYYCARELGDYDGFDYWGQGTLVTVSS VL: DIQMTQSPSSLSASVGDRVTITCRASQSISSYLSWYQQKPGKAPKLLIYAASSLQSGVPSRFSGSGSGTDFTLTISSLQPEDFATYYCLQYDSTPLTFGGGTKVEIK
OUTPUT: 1.1e+07

INPUT: Input 15D10 IgG1null (antibody, V domains shown, Human IgG1null (L234A, L235A, G237A) and human Ckappa) VH: QVQLVESGGGLVKPGGSLRLSCAASGFTFSDYGMSWIRQAPGKGLEWVSTISDGGSYTYYADNVKGRFTISRDNAKNSLYLQMNSLRAEDTAVYYCAREWGDYDGFDFWGQGTLVTVSS VL: DIQMTQSPSSLSASVGDRVTITCRASQSISSYLSWYQQKPGKAPKLLIYAASTLQSGVPSRFSGSGSGTDFTLTISSLQPEDFATYYCLQYDSTPLTFGGGTKVEIK
OUTPUT: 3.3e+06

INPUT: Input MH5 IgG1null (antibody, V domains shown, Designer (Maximally Humanized) clone; Human IgG1null and human Ckappa) VH: QVQLVESGGGLVKPGGSLRLSCAASGFTFSDYGMSWIRQAPGKGLEWVSTISDSGSTIYYADSVKGRFTISRDNAKNSLYLQMNSLRAEDTAVYYCAREYGDYDGFDYWGQGTLVTVSS VL: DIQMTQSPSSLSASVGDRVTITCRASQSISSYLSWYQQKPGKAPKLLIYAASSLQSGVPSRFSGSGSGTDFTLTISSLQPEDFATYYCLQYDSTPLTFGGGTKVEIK
OUTPUT: 1.2e+07

INPUT: Input MH1 IgG1null (antibody, V domains shown, Designer (Maximally Humanized) clone; Human IgG1null and human Ckappa) VH: QVQLVESGGGLVKPGGSLRLSCAASGFTFSDYGMSWIRQAPGKGLEWVSTISDSGSYIYYADSVKGRFTISRDNAKNSLYLQMNSLRAEDTAVYYCARELGDYDGFDYWGQGTLVTVSS VL: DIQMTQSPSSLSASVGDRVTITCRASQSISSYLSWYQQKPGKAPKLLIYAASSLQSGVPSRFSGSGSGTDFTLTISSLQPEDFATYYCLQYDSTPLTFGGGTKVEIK
OUTPUT: 1.3e+07

INPUT: Input 15E02 IgG1null (antibody, V domains shown, Human IgG1null and human Ckappa) VH: QVQLVESGGGLVKPGGSLRLSCAASGFTFSDYGMSWIRQAPGKGLEWVSTISDSGTTIYYADNVKGRFTISRDNAKNSLYLQMNSLRAEDTAVYYCAREYGDYDGFDYWGQGTLVTVSS VL: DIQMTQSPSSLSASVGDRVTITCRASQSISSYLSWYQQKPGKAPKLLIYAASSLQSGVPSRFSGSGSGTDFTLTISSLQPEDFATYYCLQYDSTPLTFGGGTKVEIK
OUTPUT: 3.7e+06

INPUT: Input 09D12 IgG1null (antibody, V domains shown, Human IgG1null and human Ckappa) VH: QVQLVESGGGLVKPGGSLRLSCAASGFTFSDYGMSWIRQAPGKGLEWVSTISDGGSYTYYADSVKGRFTISRDNAKNSLYLQMNSLRAEDTAVYYCAREYGDYDGFDYWGQGTLVTVSS VL: DIQMTQSPSSLSASVGDRVTITCRASQSISSYLNWYQQKPGKAPKLLIYAASSLDSGVPSRFSGSGSGTDFTLTISSLQPEDFATYYCLQYDSTPLTFGGGTKVEIK
OUTPUT: 1.1e+07

INPUT: Input MH2 IgG1null (antibody, V domains shown, Designer (Maximally Humanized) clone; Human IgG1null and human Ckappa) VH: QVQLVESGGGLVKPGGSLRLSCAASGFTFSDYGMSWIRQAPGKGLEWVSTISDSGSYIYYADSVKGRFTISRDNAKNSLYLQMNSLRAEDTAVYYCAREWGDYDGFDFWGQGTLVTVSS VL: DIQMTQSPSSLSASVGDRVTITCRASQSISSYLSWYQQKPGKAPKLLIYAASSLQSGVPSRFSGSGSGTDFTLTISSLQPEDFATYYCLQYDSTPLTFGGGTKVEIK
OUTPUT: 2e+07

The values you see were collected from patent US20200339702A1.
